Molecular target: KRAS G12C (Homo sapiens, UniProt P01116, G12C)
Sequence (P01116 1-188 isoform P01116-2 G12C): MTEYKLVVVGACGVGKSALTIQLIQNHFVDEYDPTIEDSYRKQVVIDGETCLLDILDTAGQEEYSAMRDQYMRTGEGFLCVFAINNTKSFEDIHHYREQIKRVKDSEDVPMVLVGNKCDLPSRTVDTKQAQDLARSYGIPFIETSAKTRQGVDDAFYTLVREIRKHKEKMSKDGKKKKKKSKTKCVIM
Test: GDP-GTP exchange assay (KRAS_G12C exchange)
Details: bodipy-GDP loaded KRAS G12C 2.5 nM, SOS1 150 nM, GppNHp; 2 hours pre-incubation, 2 hours reaction; read-out: G12C_exchange
Procedure: Example A. GDP-GTP Exchange Assay The inhibitor potency of the exemplified compounds was determined in a fluorescence based guanine nucleotide exchange assay, which measures the exchange of bodipy-GDP (fluorescently labeled GDP) for GppNHp (Non-hydrolyzable GTP analog) to generate the active state of KRAS in the presence of SOS1 (guanine nucleotide exchange factor). Inhibitors were serially diluted in DMSO and a volume of 0.1 μL was transferred to the wells of a black low volume 384-well plate. […]
pIC50: −log10 of the molar value.
Quantity measured: pIC50

Compound	Reading
C=CC(=O)N1CC[C@H](n2nnc3c(OC[C@@H]4CCCN4C)nc4c(F)c(-c5c(C)c(Cl)cc6[nH]ncc56)c(Cl)cc4c32)C[C@H]1CC#N [Example 190a]	≥ 7.00

[Q] Reported pIC50, compound C=CC(=O)N1CC[C@H](n2cnc3c(N4CC(N(C)C)C4)nc4c(F)c(-c5cccc(C#N)c5C)c(Cl)cc4c32)C[C@H]1CC#N : ____
[A] ≥ 7.00

[Q] Fill blank: measured pIC50 of the compound Cc1cc2c(nc(N3CC(C)(N(C)C)C3)c3nnn([C@H]4CCN(C(=O)/C=C/CN(C)C)[C@H](CC#N)C4)c32)c(F)c1-c1cccc(Cl)c1C is ____.
[A] ≥ 7.00

* * *

biological target: KRAS G12C (Homo sapiens, UniProt P01116, G12C); test: GDP-GTP exchange assay (KRAS_G12C exchange); conditions: bodipy-GDP loaded KRAS G12C 2.5 nM, SOS1 150 nM, GppNHp; 2 hours pre-incubation, 2 hours reaction; read-out: G12C_exchange
pIC50: −log10 of the molar value.
Quantity measured: pIC50

Compound	Reading
CC#CC(=O)N1CC[C@H](n2nnc3c(N4CC(C)(N(C)C)C4)nc4c(F)c(-c5cccc(Cl)c5C)c(C)cc4c32)C[C@H]1CC#N [Example 103]	≥ 7.00

[Q] Look up pIC50: C=CC(=O)N1CCC(n2cnc3c(=O)n(C)c4c(F)c(-c5cc(O)cc6ccccc56)c(Cl)cc4c32)C1 (racemic) [Example 33]
[A] 6.00 to 7.00

[Q] If you can, please state the reported pIC50 value of C=C(F)C(=O)N1CC[C@H](n2nnc3c(N4CC(N(C)C)C4)nc4c(F)c(-c5c(C)c(Cl)cc6[nH]ncc56)c(Cl)cc4c32)C[C@H]1CC#N [Example 189] .
[A] ≥ 7.00

[Q] Name the recorded pIC50 for C=CC(=O)N1CCC(n2cnc3c(OC[C@@H]4CCCN4C)nc4c(F)c(-c5cc(O)cc6ccccc56)c(Cl)cc4c32)C1 (mixture of isomers) [Example 7] .
[A] ≥ 7.00

[Q] Given the compound C=CC(=O)N1CC[C@H](n2cnc3c(N4CC(N(C)C)C4)nc4c(F)c(-c5cccc(C)c5C)c(Cl)cc4c32)C[C@H]1CC#N [Example 16] , what is its reported pIC50?
[A] ≥ 7.00

[Q] Tell me the measured pIC50 of C=CC(=O)N1CCC(n2cnc3c(OCc4ccnn4C)nc4c(F)c(-c5cc(O)cc6ccccc56)c(Cl)cc4c32)CC1 [Example 8] , please.
[A] 6.00 to 7.00

[Q] GET /values?readout=pIC50&item= C=CC(=O)N1CCC(n2cnc3c(OC[C@@H]4CCCN4C)nc4c(F)c(-c5cccc6c5CCC6)c(Cl)cc4c32)CC1CC#N (mixture of isomers) [Example 44]
[A] ≥ 7.00

[Q] Consider the compound shown here: C=CC(=O)N1CC[C@H](n2nnc3c(N4CC(C)(N(C)C)C4)nc4c(F)c(-c5c(C)c(F)cc6[nH]ncc56)c(C)cc4c32)C[C@H]1CC#N [Example 202a] What is its recorded pIC50?
[A] ≥ 7.00

[Q] // query pIC50 value for entry CC#CC(=O)N1CC[C@H](n2nnc3c(N4CC(C)(N(C)C)C4)nc4c(F)c(-c5cccc(Cl)c5C)c(C(F)(F)F)cc4c32)C[C@H]1CC#N [Example 239a]
[A] ≥ 7.00

[Q] Entry C=CC(=O)N1CCC(n2cnc3c(OC[C@@H]4CCCN4C)nc4c(F)c(-c5c(C)ccc6[nH]ncc56)c(Cl)cc4c32)CC1CC#N (single isomer, unassigned) [Example 37a] : reported pIC50 = ?
[A] ≥ 7.00

[Q] Bench note: what pIC50 did C=CC(=O)N1CC[C@H](n2nnc3c(OC[C@@H]4CCCN4C)nc4c(F)c(-c5ccc(F)c(Cl)c5)c(Cl)cc4c32)C[C@H]1CC#N [Example 85] show?
[A] ≥ 7.00

[Q] For the compound C=C(F)C(=O)N1CC[C@H](n2nnc3c(OC[C@@H]4CCCN4C)nc4c(F)c(-c5c(C)c(Cl)cc6[nH]ncc56)c(Cl)cc4c32)C[C@H]1CC#N [Example 192] , what pIC50 is on record?
[A] ≥ 7.00

[Q] Entry under review: Cc1cccc(-c2c(C)cc3c(nc(N4CC(N(C)C)C4)c4nnn([C@H]5CCN(C(=O)/C=C/C(F)F)[C@H](CC#N)C5)c43)c2F)c1C [Example 148] . Reported pIC50?
[A] ≥ 7.00

[Q] Could you tell me which pIC50 is on file for CC#CC(=O)N1CCC(n2nnc3c(N4CC(C)(N(C)C)C4)nc4c(F)c(-c5cccc6cccc(Cl)c56)c(Cl)cc4c32)C[C@H]1CC#N (single isomer, unassigned) [Example 218a] ?
[A] ≥ 7.00

[Q] I am curious: what pIC50 value has been reported for C=CC(=O)N1CCC(n2nnc3c(N4CC(C)(N(C)C)C4)nc4c(F)c(-c5cccc6cccc(C#N)c56)c(Cl)cc4c32)C[C@H]1CC#N (single isomer, unassigned) [Example 220a] ?
[A] ≥ 7.00

[Q] // returns reported pIC50 for input C=CC(=O)N1CC[C@H](n2nnc3c(N4CC(N(C)C)C4)nc4c(Cl)c(-c5cccc(Cl)c5OC)c(Cl)cc4c32)C[C@H]1CC#N [Example 290]
[A] ≥ 7.00

[Q] Report pIC50 for C=CC(=O)N1CC[C@H](n2nnc3c(OC[C@@H]4CCCN4C)nc4c(Cl)c(-c5cccc(C)c5Cl)c(Cl)cc4c32)C[C@H]1CC#N [Example 286] please.
[A] ≥ 7.00

[Q] Reported pIC50, compound C=CC(=O)N1CC[C@H](n2cnc3c(N4CC(N(C)C)C4)nc4c(F)c(-c5cccc6ccncc56)c(Cl)cc4c32)C[C@H]1CC#N (single isomer, unassigned) [Example 71a] : ____
[A] ≥ 7.00

[Q] Quick one: pIC50 for C=CC(=O)N1CC[C@H](n2cnc3c(N4CC(N(C)C)C4)nc4c(F)c(-c5cc(O)cc(C)c5C)c(Cl)cc4c32)C[C@H]1CC#N (single isomer, unassigned) [Example 52a] ?
[A] ≥ 7.00
